- system under test: T1, Mutant CD33-GFP M2 (H45E) on 293FT cells (UniProt P20138 18-364)
- T1 construct: whole, on cells; not shown: GFP fused to CD33
- T1 sequence (P20138 18-364 H45E): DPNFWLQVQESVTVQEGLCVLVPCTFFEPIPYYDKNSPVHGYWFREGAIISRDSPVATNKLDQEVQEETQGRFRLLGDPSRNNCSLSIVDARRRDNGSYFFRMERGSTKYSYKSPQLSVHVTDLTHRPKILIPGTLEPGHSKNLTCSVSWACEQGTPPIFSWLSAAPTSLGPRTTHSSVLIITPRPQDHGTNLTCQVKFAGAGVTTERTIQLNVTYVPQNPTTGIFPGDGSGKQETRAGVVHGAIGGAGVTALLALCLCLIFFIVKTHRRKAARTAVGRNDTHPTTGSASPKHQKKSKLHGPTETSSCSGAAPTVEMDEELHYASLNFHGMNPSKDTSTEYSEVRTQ
- protocol text: FACS, mutant CD33-GFP on 293FT cells
quantity name: FACS binding data
Answer with a bare number; do not write a unit.

Known FACS binding data results, listed for orientation:
Task item: Report FACS binding data for sdCD33_4 (VHH) VHH: QVKLEESGGGSVQAGESLRLSCTASGITFRDYDIDWYRQAPGKEREWLATITPSGTTHYPDSVKGRATISRDSAKNTVYLQMNSLKPEDTARYECNTLAYWGSGTQVTVSS please.
Reply: 84.4

Task item: Which value of FACS binding data has been reported for sdCD33_3 (VHH) VHH: DVQLVESGGGLVQPGGSLRLSCSVSGNIDRFYAMGWYRQAPGKQRELVAQLTNNEITTYGDSVEGQFSISGDFDANTVYLQMDSLKPEDTAVYYCHAHVTTTRWSQDYYWGQGTRVTVSS in the records?
Reply: 98.8

Task item: Which FACS binding data value belongs to sdCD33_9 (VHH, sdAb from a naive llama phage library; also called 426; sdAb426) VHH: QVKLEESGGGLVRAGGSLRLSCAASGGTFSTYAMAWFRQAPGKEREFVAAITWGGGSTYYEDSVKGRFTISRDNAKNTGVLQMNNLDVDDTAVYYCYAFGRSRAGDANGDYWGQGTQVTVSS ?
Reply: 97.7

Task item: Which FACS binding data is reported for this binder? sdCD33_11 (VHH, sdAb from a naive llama phage library; also called 430; sdAb430) VHH: AVQLVESGGGLVQAGGSLRLSCAASGDTFANYAMGWFRQAPGKEREFVAAISWSDSSTHYADSVKGRFTIPRDNAKNAVYLQMDQLKPEDMAVYYCYAYIRGVGEVRYVDYWGQGTQVTVSS
Reply: 99.3

Task item: Consider the binder sdCD33_2 (VHH) VHH: QVQLVQPGGSLRLFCVASEEFFSIYAMGWYRQAPGKQHEMVARFTRDGKITYADSAKGRFTITRDAKNTLNLQMNGLIPEDTAVYYCNINHYWGQGTQVTVSS and give its measured FACS binding data.
Reply: 2.54

Task item: Look up FACS binding data for this binder: sdCD33_5 (VHH, sdAb from a naive llama phage library; also called 413; sdAb413) VHH: QVQLQESGGGLVQPGGSLRLSCAASGSVFSIYAMAWYRQAPGKQRELVAVITSGGATNYADSVKGRFTISRDIAKKTLYLQMNTLKPEDTAVYYCYAHLLIQPFDRFYDYWGQGTQVTVSS
Reply: 5.93

Task item: # FACS binding data lookup, item hu195 (antibody, V domains shown) VH: QVQLVQSGAEVKKPGSSVKVSCKASGYTFTDYNMHWVRQAPGQGLEWIGYIYPYNGGTGYNCIKFKSKATITADESTNTAYMELSSLRSEDTAVYYCARGRPAMDYWGQGTLVTVSS VL: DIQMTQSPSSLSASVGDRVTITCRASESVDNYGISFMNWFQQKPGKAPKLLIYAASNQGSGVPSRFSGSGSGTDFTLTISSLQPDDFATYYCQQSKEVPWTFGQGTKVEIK
Reply: 99.6

Task item: Quick one: FACS binding data of sdCD33_8 (VHH, sdAb from a naive llama phage library; also called 424; sdAb424) VHH: QVQLVESGGGLVQAGGSLRLSCAASGGAFSTYTMGWFRQAPGKEREFVAAIAWTGTHTYYSDSVKGRFTISRDNDKNTVFLQMNSLKPEDTAVYYCAQASSRYRAVTDSLSENHWGPGTQVTVST ?
Reply: 97.3

---
Task item: Looking for the measured FACS binding data of sdCD33_7 (VHH, sdAb from a naive llama phage library; also called 420; sdAb420) VHH: EVQLVESGGGLVQPGGSLRLSCVASGFTFKDYGMTWVRQAPGKALEWVSDINSAGDGIYYSDSVKGRFTISRDDSKGTLYLQMNSLTPEDTAIYYCAAERQRAGDVKRSLAPITAHIWGQGTQVTVSS , can you help?
Reply: 91.5

Task item: Reported FACS binding data, binder sdCD33_10 (VHH) VHH: QVQLVETGGGLVRAGGSLRLSCAASGRTADIYNIGWFRQAPGKEREFVAAITWIGRTPYYADAVKGRFAFSTDSAKNTVSLQMDNLKPEDTGVYYCNAAHYLEGNTDYYWGQGTQVTVSS : ____
Reply: 65.5

Task item: Item under review: sdCD33_6 (VHH, sdAb from a naive llama phage library; also called 416; sdAb416) VHH: EVQLVESGGGLVQPRGSLRLSCVVSGSMSSIYSMSWYRQPPGKQRELVAHITTTGTTNYIDSVKGRFTISIDNDINVIYLQMNTLKPEDTAVYYCNAGLKAGPGPRLDYWGLGTQVTVSS . Reported FACS binding data?
Reply: 96.6

Hello, the source for this data is patent US20230365675A1, in case you need it.
